Assay: Solubility
Type: physicochemical
For each of the molecules below, state its Solubility.
Kindly answer with a numeric value in mM, unit omitted.

INPUT: Solubility for Cc1c(C(=O)N(C)Cc2cccc3ncccc23)sc2ncnc(NCC3CC4C=CC3CC4)c12 (centres unmarked) [II-5] ?
OUTPUT: 25

INPUT: Solubility for O=C(NCC12CC3CC(CC(C3)C1)C2)c1cccc(OC2CCN(C(=O)C3CC3)CC2)c1 [Compound I-13] ?
OUTPUT: 25

INPUT: Solubility for O=C(NCCC1CC2C=CC1C2)c1cccc(OC2CCN(C(=O)c3cccnc3)CC2)c1 (centres unmarked) [Compound I-9] ?
OUTPUT: 25

INPUT: Solubility for O=C(Nc1ccc(Cl)cc1)c1cccc(OC2CCN(C(=O)C3CC3)CC2)c1 [Compound I-28] ?
OUTPUT: 25

INPUT: Solubility for CC(C)c1ccc(NC(=O)c2cccc(OC3CCN(C(=O)C4CC4)CC3)c2)cc1 [Compound I-29] ?
OUTPUT: 25

INPUT: Solubility for O=C(NCCC1CC2C=CC1C2)c1cccc(OC2CCN(C(=O)C3CCCC3)CC2)c1 (centres unmarked) [Compound I-3] ?
OUTPUT: 25

INPUT: Solubility for O=C(NCC1CC2C=CC1C2)c1cccc(OC2CCN(C(=O)C3CCC3)CC2)c1 (centres unmarked) [Compound I-18] ?
OUTPUT: 25

INPUT: Solubility for CC(NC(=O)c1cccc(OC2CCN(C(=O)C3CC3)CC2)c1)C12CC3CC(CC(C3)C1)C2 (centres unmarked) [Compound I-14] ?
OUTPUT: 25

----------
For each of the compounds below, state its pIC50.
Test system: 22Rv1 cell line lentiviral transduced with CMV-firefly luciferase
Assay: reporter gene assay to monitor transcriptional effects
Assay type: cell-based
Settings: Homo sapiens; 22Rv1, CMV-firefly luciferase
Expect pIC50 as a plain number equal to -log10 of the molar concentration.

INPUT: pIC50 for O=C(NCC1CC2C=CC1C2)c1cccc(OC2CCN(C(=O)C(F)(F)F)CC2)c1 (stereo not shown) ?
OUTPUT: 5.28

INPUT: pIC50 for O=C(NCCC1CC2C=CC1C2)c1cccc(OC2CCN(C(=O)C(F)(F)F)CC2)c1 (stereo not shown) ?
OUTPUT: 4.66

----------
Test system: 22Rv1 cell line lentiviral transduced with CMV-firefly luciferase
Test: reporter gene assay to monitor transcriptional effects
Format: cell-based
Conditions: Homo sapiens; 22Rv1, CMV-firefly luciferase
Method: All compounds were evaluated in a reporter gene assay (22Rv1 cell line lentiviral transduced with CMV-firefly luciferase) to monitor transcriptional effects and two cell viability assays (Cell-titer blue; PC3 cell line, an AR insensitive cell line, and LNCaP cell line, an AR sensitive cell line). The compounds were also monitored for aggregation.
experimentalReadout: IC50

INPUT: IC50 for Cc1c(C(=O)N(C)Cc2cccc3ncccc23)sc2ncnc(NCCC3CCCCC3)c12 ?
OUTPUT: 9.63 µM

INPUT: IC50 for CCCCC(=O)N1CCC(Oc2cccc(C(=O)NCCC3CC4C=CC3C4)c2)CC1 (stereo not shown) ?
OUTPUT: ~27.9 µM

INPUT: IC50 for O=C(NCC1CC2C=CC1C2)c1cccc(OC2CCN(C(=O)C3CC3)CC2)c1 (stereo not shown) ?
OUTPUT: 28.3 µM

INPUT: IC50 for C=CCCC(=O)N1CCC(Oc2cccc(C(=O)NCCC3CC4C=CC3C4)c2)CC1 (stereo not shown) ?
OUTPUT: 31.5 µM
